# reported recombinant barcode read abundance (log10); entries follow
Assay: recombinant barcode read abundance after kanamycin selection (control-corrected) (log10(CPM+1)); higher = more efficient recombination; sequences stand for … in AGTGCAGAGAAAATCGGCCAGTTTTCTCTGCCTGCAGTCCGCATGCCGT…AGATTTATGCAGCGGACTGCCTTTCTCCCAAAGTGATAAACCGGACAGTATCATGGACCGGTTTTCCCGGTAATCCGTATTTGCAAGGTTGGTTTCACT; site = the 11-nt target;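 note: IS621 recombinase and bridge RNA in Escherichia coli cells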
Quantity Name: recombinant barcode read abundance (log10)

Chain Sequence	Quantitative Result
CGGCACACTTGGGTTCTAACCTGTTGCCT (site CGCCACACTAG)	0.0516
ATATGTCCTTGGGTTCTAACCTGTTGCAG (site ATATGTCCTCT)	1.88
TGAGACACTTGGGTTCTAACCTGTTGCTG (site TGACACACTCA)	0.0729
ACAGAGACTTGGGTTCTAACCTGTTGCGC (site ACATAGACTGC)	0.221
CGCCATCCTTGGGTTCTAACCTGTTGCAT (site CGCCGTCCTAT)	0.0349
TAGCCTACTTGGGTTCTAACCTGTTGCGC (site TAGCCTACTAC)	0.0597
TACATCCCTTGGGTTCTAACCTGTTGCCT (site TACATCCCTAG)	0.915
AGATGTACTTGGGTTCTAACCTGTTGCTG (site ACATGTACTCT)	0.0665
GCCGATACTTGGGTTCTAACCTGTTGCCT (site GCCGAGACTAG)	0.197
AGCCACTCTTGGGTTCTAACCTGTTGCCT (site AGCCACACTAG)	0.0426
ACCTTGTCTTGGGTTCTAACCTGTTGCCT (site ACGTTGTCTAG)	0.0273
GGAACCTCTTGGGTTCTAACCTGTTGCTT (site GGAACCTCTAA)	0.697
TATAAGTCTTGGGTTCTAACCTGTTGCCT (site CGTAAGTCTAG)	0.0475
GTACGATCTTGGGTTCTAACCTGTTGCGG (site GTACGATCTCC)	0.753
GGAATCCCTTGGGTTCTAACCTGTTGCCT (site GGAATTCCTAG)	0.0836
GGTCATCCTTGGGTTCTAACCTGTTGCCT (site GGTCATCCTAG)	1.17
AACCGCCCTTGGGTTCTAACCTGTTGCGT (site AACCGCCCTAG)	0.434
GACTCTCCTTGGGTTCTAACCTGTTGCAG (site GACTCTCCTCA)	0.147
CCTTACACTTGGGTTCTAACCTGTTGCGG (site CCTTACACTCC)	2.53
CGGTGAACTTGGGTTCTAACCTGTTGCCT (site CGGTGAACTAG)	1.16
TCGATTACTTGGGTTCTAACCTGTTGCCT (site TCGATTACTAG)	0.123
ATCGGAGCTTGGGTTCTAACCTGTTGCAG (site ATCGGAGCTCC)	0.166
AACTTGACTTGGGTTCTAACCTGTTGCCT (site AACTTGACTAG)	0.731
ATCCTACCTTGGGTTCTAACCTGTTGCTT (site ATCCTACCTAA)	1.72
CTCCATTCTTGGGTTCTAACCTGTTGCAT (site CTCCATTCTAT)	1.74
TACTGAACTTGGGTTCTAACCTGTTGCCT (site TACTCAACTAG)	0.104
TGGAACACTTGGGTTCTAACCTGTTGCCT (site TGGAGCACTAG)	0.0596
AACCGCCCTTGGGTTCTAACCTGTTGCGT (site AACCGCCCTAC)	2.47
AGTTGTCCTTGGGTTCTAACCTGTTGCTT (site AGTTGTCCTAA)	0.126
CGGAGCCCTTGGGTTCTAACCTGTTGCAG (site CGGAGCCCTCT)	2.06
GCCGTCCCTTGGGTTCTAACCTGTTGCTA (site GTCGTCCCTTG)	0.106
GTGTCTCCTTGGGTTCTAACCTGTTGCGA (site GAGTGTCCTTC)	0.00692
GTACGGCCTTGGGTTCTAACCTGTTGCCT (site GTACCGCCTAG)	0.0984
TAACGGGCTTGGGTTCTAACCTGTTGCCG (site TAACGGGCTCG)	0.529
TACCGAGCTTGGGTTCTAACCTGTTGCTG (site TACCGAGCTCA)	0.604
GGCAGTCCTTGGGTTCTAACCTGTTGCCG (site GGCAGTCCTCG)	0.364
AGCCTTACTTGGGTTCTAACCTGTTGCCT (site AGCCTTACTAG)	0.171
AACTGGGCTTGGGTTCTAACCTGTTGCCT (site AGCTGGGCTAG)	0.0923
ACATTTCCTTGGGTTCTAACCTGTTGCAT (site TAGAACTCTGC)	0.105
GTGGTGGCTTGGGTTCTAACCTGTTGCCT (site GTTGGGGCTAG)	0.151
GAGCGCTCTTGGGTTCTAACCTGTTGCTG (site GAGCGCTCTGA)	0.207
TTATACACTTGGGTTCTAACCTGTTGCTC (site TTATACACTGA)	0.919
